target: B2 bradykinin receptor (Cavia porcellus); assay: Effect on BK-induced hypotension in Dunkin Hartley guinea pig at 100 nmol/kg, it; format: functional
Endpoint: Activity
Include the unit after the number when you answer.

Consider the reported Activity for these compounds:
Smiles Data	Result
Cc1cc(C)c2cccc(OCc3c(Cl)ccc(S(=O)(=O)NC4(C(=O)N5CCN(C(=O)C[C@@H](N)CCCN)CC5)CCCC4)c3Cl)c2n1	100%
Cc1cc(C)c2cccc(OCc3c(Cl)ccc(S(=O)(=O)NC4(C(=O)N5CCN(C(=O)[C@@H](N)CCCC[N+](C)(C)C)CC5)CCCC4)c3Cl)c2n1	94%
Cc1cc(C)c2cccc(OCc3c(Cl)ccc(S(=O)(=O)NC4(C(=O)N5CCN(C(=O)[C@H](CCCCN)[N+](C)(C)C)CC5)CCCC4)c3Cl)c2n1	84%
Cc1cc(C)c2cccc(OCc3c(Cl)ccc(S(=O)(=O)NC4(C(=O)N5CCN(C(=O)CCC[N+](C)(C)C)CC5)CCCC4)c3Cl)c2n1	83%
Cc1cc(C)c2cccc(OCc3c(Cl)ccc(S(=O)(=O)NC4(C(=O)N5CCN(C(=O)[C@@H](N)CCC[N+](C)(C)C)CC5)CCSCC4)c3Cl)c2n1	89%

Please go through the list and note Activity for each compound.
1. Cc1cc(C)c2cccc(OCc3c(Cl)ccc(S(=O)(=O)NC4(C(=O)N5CCN(C(=O)[C@@H](N)CC[N+](C)(C)C)CC5)CCCC4)c3Cl)c2n1
2. Cc1cc(C)c2cccc(OCc3c(Cl)ccc(S(=O)(=O)NC4(C(=O)N5CCN(C(=O)[C@@H](N)CCC[N+](C)(C)C)CC5)CCN(C)CC4)c3Cl)c2n1

Result:
1: 87%; 2: 86%

Provide each entry's Activity from the list below.
1. Cc1cc(C)c2cccc(OCc3c(Cl)ccc(S(=O)(=O)NC4(C(=O)N5CCN(C(=O)C[C@@H](N)CCC[N+](C)(C)C)CC5)CCCC4)c3Cl)c2n1
2. Cc1cc(C)c2cccc(OCc3c(Cl)ccc(S(=O)(=O)NC4(C(=O)N5CCN(C(=O)[C@H](CCCN)[N+](C)(C)C)CC5)CCCC4)c3Cl)c2n1

Result:
1: 96%; 2: 82%

* * *

biological target: UniProt:O70526; test: Inhibition of BK-induced bronchoconstriction in Dunkin Hartley guinea pig at 300 nmol/kg, it; assay type: functional; parameters: scale not given: the % may be the effect or the level left
Endpoint: Activity (%)
One number for each entry, in %.

Okay, here is my list. What is Activity for each of these?
1. Cc1cc(C)c2cccc(OCc3c(Cl)ccc(S(=O)(=O)NC(C)(C)C(=O)N4CCN(C(=O)[C@@H](N)CCCCNC(=N)N)CC4)c3Cl)c2n1
2. Cc1cc(C)c2cccc(OCc3c(Cl)ccc(S(=O)(=O)NC4(C(=O)N5CCN(C(=O)C[C@@H](N)CCCN(C)C)CC5)CCCC4)c3Cl)c2n1

Result:
1. 54
2. 21

For the 4 compounds below, give their Activity values.
1. Cc1cc(C)c2cccc(OCc3c(Cl)ccc(S(=O)(=O)NC(C)(C)C(=O)N4CCN(C(=O)[C@@H](N)CCCN(C)C)CC4)c3Cl)c2n1
2. Cc1cc(C)c2cccc(OCc3c(Cl)ccc(S(=O)(=O)NC4(C(=O)N5CCN(C(=O)[C@@H](N)CCCCN(C)C)CC5)CCCC4)c3Cl)c2n1
3. Cc1cc(C)c2cccc(OCc3c(Cl)ccc(S(=O)(=O)N4CCC[C@@H]4C(=O)NCCCNC(=O)c4ccc(C(=N)N)cc4)c3Cl)c2n1
4. Cc1cc(C)c2cccc(OCc3c(Cl)ccc(S(=O)(=O)NC4(C(=O)N5CCN(C(=N)NCCC[N+](C)(C)C)CC5)CCCC4)c3Cl)c2n1

Result:
1. 39
2. 29
3. 96
4. 17

* * *

Biological target: B2 bradykinin receptor (Cavia porcellus)
Sequence (whole entry): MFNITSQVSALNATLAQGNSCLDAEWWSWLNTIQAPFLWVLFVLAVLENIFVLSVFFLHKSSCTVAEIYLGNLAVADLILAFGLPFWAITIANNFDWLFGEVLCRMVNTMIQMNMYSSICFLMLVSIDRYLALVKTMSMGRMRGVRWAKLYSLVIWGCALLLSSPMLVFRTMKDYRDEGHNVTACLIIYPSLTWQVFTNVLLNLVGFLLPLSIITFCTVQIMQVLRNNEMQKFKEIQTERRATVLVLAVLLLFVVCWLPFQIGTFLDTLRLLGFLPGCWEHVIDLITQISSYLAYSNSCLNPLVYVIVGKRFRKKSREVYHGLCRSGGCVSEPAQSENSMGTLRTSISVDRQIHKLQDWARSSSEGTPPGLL
Experiment: Inhibition of BK-induced bronchoconstriction in Dunkin Hartley guinea pig at 100 nmol/kg, it
Format: functional
Parameters: scale not given: the % may be the effect or the level left
Endpoint: Activity (%)
Numbers only, in %.

Consider the following illustrative entries.
Smiles Data	Units Label	Activity
Cc1cc(C)c2cccc(OCc3c(Cl)ccc(S(=O)(=O)NC4(C(=O)N5CCN(C(=O)[C@@H](N)CCCC[N+](C)(C)C)CC5)CCCC4)c3Cl)c2n1	%	35
Cc1cc(C)c2cccc(OCc3c(Cl)ccc(S(=O)(=O)NC4(C(=O)N5CCN(C(=O)CCC[N+](C)(C)C)CC5)CCCC4)c3Cl)c2n1	%	65
Cc1cc(C)c2cccc(OCc3c(Cl)ccc(S(=O)(=O)NC4(C(=O)N5CCN(C(=O)[C@@H](N)CCC[N+](C)(C)C)CC5)CCOCC4)c3Cl)c2n1	%	13
Cc1cc(C)c2cccc(OCc3c(Cl)ccc(S(=O)(=O)NC4(C(=O)N5CCN(C(=O)[C@@H](N)CCC[N+](C)(C)C)CC5)CCSCC4)c3Cl)c2n1	%	59
Cc1cc(C)c2cccc(OCc3c(Cl)ccc(S(=O)(=O)NC4(C(=O)N5CCN(C(=O)[C@H](CCCCNC(=N)N)[N+](C)(C)C)CC5)CCCC4)c3Cl)c2n1	%	61
Cc1cc(C)c2cccc(OCc3c(Cl)ccc(S(=O)(=O)NC4(C(=O)N5CCN(C(=O)C[C@H](CCCN)[N+](C)(C)C)CC5)CCCC4)c3Cl)c2n1	%	72

Could you report Activity for every entry in the following list?
1. Cc1cc(C)c2cccc(OCc3c(Cl)ccc(S(=O)(=O)NC4(C(=O)N5CCN(C(=O)[C@H](CCCN)[N+](C)(C)C)CC5)CCCC4)c3Cl)c2n1
2. Cc1cc(C)c2cccc(OCc3c(Cl)ccc(S(=O)(=O)NC4(C(=O)N5CCN(C(=O)[C@H](CCCCN)[N+](C)(C)C)CC5)CCCC4)c3Cl)c2n1

Result:
43
39
